Answer each item with its documented pIC50.
# Tested on: SET-2 cells (JAK2 V617F)
# PROTOCOL: Inhibition of cell proliferation by MTT experiment, SET-2
# Type: cell-based
# CONDITION_DETAILS: Homo sapiens, SET-2; MTT, 72 h; read-out: IC50 value on cell proliferation inhibition, SET-2 (V617F)
pIC50: −log10 of the molar value.

Consider Cc1cnc(Nc2ccc(N3CCC[C@@H](N(C)C(=O)CCC#N)C3)c(F)c2)nc1-c1cnn(C(C)C)c1 [CLJ-65] . Its measured pIC50 is 6.00 to 7.00

Consider Cc1cnc(Nc2ccc(N3CCC(N(C)CCO)CC3)c(F)c2)nc1-c1cn(C(C)C)nc1S(C)(=O)=O [CLJ-91] . Its measured pIC50 is 6.00 to 7.00

Consider CC(C)n1cc(-c2nc(Nc3ccc(N4CCN(C)CC4)cc3F)ncc2F)cn1 [CLJ-23] . Its measured pIC50 is 6.00 to 7.00

Consider CC(C)n1cc(-c2nc(Nc3ccc(N4CCN(C)CC4)c(F)c3)ncc2F)cn1 [CLJ-24] . Its measured pIC50 is < 6.00

Consider Cc1cnc(Nc2ccc(NS(=O)(=O)c3ccc4c(c3)CC(=O)N4)c(F)c2)nc1-c1cnn(C(C)C)c1 [CLJ-95] . Its measured pIC50 is 6.00 to 7.00

Consider CC(C)N1CCN(Cc2ccc(Nc3ncc(F)c(-c4ccc(CN5CCc6ccccc65)o4)n3)nc2)CC1 [CLJ-3] . Its measured pIC50 is < 6.00

Consider CCN1CCN(c2ccc(Nc3ncc(F)c(-c4ccc(CN5CCCC5)o4)n3)nc2)CC1 [CLJ-2] . Its measured pIC50 is < 6.00

Consider CC(C)n1cc(-c2nc(Nc3ccc(N4CCN(C5CCN(C)CC5)CC4)c(F)c3)ncc2F)cn1 [CLJ-32] . Its measured pIC50 is 6.00 to 7.00

Consider CC(C)n1cc(-c2nc(Nc3ccc(N4CCN(C)CC4)cc3)ncc2F)cn1 [CLJ-22] . Its measured pIC50 is 6.00 to 7.00

Consider CN1CCN(c2ccc(Nc3ncc(F)c(-c4cnn(C5CCCC5)c4)n3)cc2F)CC1 [CLJ-16] . Its measured pIC50 is < 6.00

Consider Cc1cnc(Nc2ccc(N3CCC(N(C)CC4CC4)CC3)c(F)c2)nc1-c1cnn(C(C)C)c1 [CLJ-52] . Its measured pIC50 is 6.00 to 7.00

Consider Cc1cnc(Nc2ccc(N3CCC(CO)CC3)c(F)c2)nc1-c1cnn(C(C)C)c1 [CLJ-42] . Its measured pIC50 is 6.00 to 7.00

Consider CCCN(CCN1CCOCC1)C1CCN(c2ccc(Nc3ncc(C)c(-c4cnn(C(C)C)c4)n3)cc2F)CC1 [CLJ-60] . Its measured pIC50 is 6.00 to 7.00

Consider CN(C)C1CCN(c2ccc(Nc3ncc(F)c(-c4cnn(C5CCCC5)c4)n3)cc2F)CC1 [CLJ-18] . Its measured pIC50 is 6.00 to 7.00

Consider CCCn1cc(-c2nc(Nc3ccc(N4CCN(C)CC4)cc3F)ncc2F)cn1 [CLJ-6] . Its measured pIC50 is < 6.00

Consider Cc1cnc(Nc2ccc(CCNC(=O)CCl)cc2)nc1-c1cnn(C(C)C)c1 [CLJ-86] . Its measured pIC50 is < 6.00

Consider CCCN1CC2(CCN(c3ccc(Nc4ncc(C)c(-c5cnn(C(C)C)c5)n4)cc3F)CC2)C1 [CLJ-72] . Its measured pIC50 is 6.00 to 7.00

Reference source: patent US12428394B2
